Experiment: Hydrolysis in aqueous buffer of various pH values at 37° C., HPLC
Assay type: physicochemical
Settings: pH = 7.4, 37° C., 24 h
I'd appreciate it if you could supply Decomposition in % values for the items below.

Before answering, review these 3 worked examples.
INSERT INTO measurements (compound, endpoint_result) VALUES
  ('C[C@]12CC[C@@H]3c4ccc(O)cc4CC[C@H]3[C@@H]1CC[C@@H]2OS(=O)(=O)c1cccc(S(N)(=O)=O)c1', '84%'),
  ('C[C@@H]1CC2=CC(=O)CC[C@]2(C)[C@H]2CC[C@]3(C)[C@@H](OS(=O)(=O)c4cccc(S(N)(=O)=O)c4)CC[C@H]3[C@H]12', '70%'),
  ('C[C@]12CC[C@H]3[C@@H](CCC4=CC(=O)CC[C@@]43C)[C@@H]1CC[C@@H]2OS(=O)(=O)c1cccc(S(N)(=O)=O)c1', '75%');

// switching to the query compound
Annotate the compound CCC(=O)O[C@H]1CC[C@H]2[C@@H]3CCC4=CC(=O)CC[C@]4(C)[C@H]3CC[C@]12C [Testosterone Propionate, 3-Oxoandrost-4-en-17β-yl n-propionate, reference compound] with its measured Decomposition in %.
0%

* * *

Experiment: Solubility in water (kinetic nephelometry / thermodynamic HPLC)
Format: physicochemical
Details: 25 °C, aqueous buffer
assay-readout: solubility (µg/mL)
Give bare numbers, in µg/mL.

INSERT INTO results (molecule, assay_readout, scale_unit, endpoint_result) VALUES
  ('C[C@]12CC[C@@H]3c4ccc(O)cc4CC[C@H]3[C@@H]1CC[C@@H]2OS(=O)(=O)c1cccc(S(N)(=O)=O)c1', 'solubility', 'µg/mL', 3);

Using the record for C[C@]12CC[C@H]3[C@@H](CCC4=CC(=O)CC[C@@]43C)[C@@H]1CC[C@@H]2OS(=O)(=O)c1cccc(S(N)(=O)=O)c1 , state its measured solubility.
5

* * *

Hi there, I'd appreciate the recorded Decomposition in % for every entry that follows.
Test: Hydrolysis in aqueous buffer of various pH values at 37° C., HPLC
Type: physicochemical
Conditions: pH = 7.4, 37° C., 2 h
One number for each entry, in %.

INSERT INTO results (molecule, assay_readout, endpoint_result) VALUES
  ('CCC(=O)O[C@H]1CC[C@H]2[C@@H]3CCC4=CC(=O)CC[C@]4(C)[C@H]3CC[C@]12C [Testosterone Propionate, 3-Oxoandrost-4-en-17β-yl n-propionate, reference compound]', 'Decomposition in %', 0);

Please look at the items below and tell me Decomposition in % for each one, in order.
1. C[C@@H]1CC2=CC(=O)CC[C@]2(C)[C@H]2CC[C@]3(C)[C@@H](OS(=O)(=O)c4cccc(S(N)(=O)=O)c4)CC[C@H]3[C@H]12
2. C[C@]12CC[C@@H]3c4ccc(O)cc4CC[C@H]3[C@@H]1CC[C@@H]2OS(=O)(=O)c1cccc(S(N)(=O)=O)c1

1: 11; 2: 13

Give the reported value of Decomposition in % for this record: C[C@]12CC[C@H]3[C@@H](CCC4=CC(=O)CC[C@@]43C)[C@@H]1CC[C@@H]2OS(=O)(=O)c1cccc(S(N)(=O)=O)c1
12

* * *

Target: human carbonic anhydrase II (Homo sapiens, UniProt P00918)
Assay: Carbonic anhydrase inhibition, photometric, nitrophenyl acetate conversion (CA II)
Assay type: biochemical
assay-readout: pIC50
One number for each entry, as −log10 of the molar value.

Using known records, supply pIC50 for C[C@]12CC[C@H]3[C@@H](CCC4=CC(=O)CC[C@@]43C)[C@@H]1CC[C@@H]2OS(=O)(=O)c1cccc(S(N)(=O)=O)c1
6.92

* * *

Test: Hydrolysis in aqueous buffer of various pH values at 37° C., HPLC
Format: physicochemical
Details: pH = 1, 37° C., 2 h
assay-readout: Decomposition in % (%)
One number for each entry, in %.

Answered examples (3):
INSERT INTO measurements (compound, endpoint_result) VALUES
  ('C[C@]12CC[C@H]3[C@@H](CCC4=CC(=O)CC[C@@]43C)[C@@H]1CC[C@@H]2OS(=O)(=O)c1cccc(S(N)(=O)=O)c1', 11),
  ('C[C@]12CC[C@@H]3c4ccc(O)cc4CC[C@H]3[C@@H]1CC[C@@H]2OS(=O)(=O)c1cccc(S(N)(=O)=O)c1', 14),
  ('C[C@@H]1CC2=CC(=O)CC[C@]2(C)[C@H]2CC[C@]3(C)[C@@H](OS(=O)(=O)c4cccc(S(N)(=O)=O)c4)CC[C@H]3[C@H]12', 11);

// switching to the query compound
Note down Decomposition in % recorded for CCC(=O)O[C@H]1CC[C@H]2[C@@H]3CCC4=CC(=O)CC[C@]4(C)[C@H]3CC[C@]12C [Testosterone Propionate, 3-Oxoandrost-4-en-17β-yl n-propionate, reference compound]
0

* * *

Target: UniProt:P00915
Sequence (P00915 whole entry): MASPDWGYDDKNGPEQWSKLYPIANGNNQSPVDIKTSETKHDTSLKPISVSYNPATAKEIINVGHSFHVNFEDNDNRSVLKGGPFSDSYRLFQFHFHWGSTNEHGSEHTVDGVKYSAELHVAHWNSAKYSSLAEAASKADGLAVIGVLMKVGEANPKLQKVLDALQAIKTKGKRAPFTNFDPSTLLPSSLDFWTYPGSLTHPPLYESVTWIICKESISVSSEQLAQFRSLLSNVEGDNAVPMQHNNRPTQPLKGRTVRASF
Assay: Carbonic anhydrase inhibition, photometric, nitrophenyl acetate conversion (CA I)
Format: biochemical
Details: human carbonic anhydrase I; read-out: CA I IC50
assay-readout: IC50 (µM)
Numbers only, in µM.

Example results:
INSERT INTO results (compound, assay_readout, scale_unit, endpoint_result) VALUES
  ('C[C@@H]1CC2=CC(=O)CC[C@]2(C)[C@H]2CC[C@]3(C)[C@@H](OS(=O)(=O)c4cccc(S(N)(=O)=O)c4)CC[C@H]3[C@H]12', 'IC50', 'µM', 2.3),
  ('C[C@]12CC[C@@H]3c4ccc(OS(N)(=O)=O)cc4CC[C@H]3[C@@H]1CC[C@@H]2O [Estradiol-3-sulfamat, Estradiol-3-sulfamate, reference compound]', 'IC50', 'µM', 0.157);

Consider the compound C[C@]12CC[C@@H]3c4ccc(O)cc4CC[C@H]3[C@@H]1CC[C@@H]2OS(=O)(=O)c1cccc(S(N)(=O)=O)c1 tested on UniProt:P00915; state its IC50.
1.7

* * *

Experiment: Hydrolysis in aqueous buffer of various pH values at 37° C., HPLC
Assay type: physicochemical
Settings: pH = 1, 37° C., 24 h
assay-readout: Decomposition in % (%)
Give bare numbers, in %.

INSERT INTO results (molecule, scale_unit, endpoint_result) VALUES
  ('C[C@]12CC[C@@H]3c4ccc(O)cc4CC[C@H]3[C@@H]1CC[C@@H]2OS(=O)(=O)c1cccc(S(N)(=O)=O)c1', '%', 80),
  ('C[C@]12CC[C@H]3[C@@H](CCC4=CC(=O)CC[C@@]43C)[C@@H]1CC[C@@H]2OS(=O)(=O)c1cccc(S(N)(=O)=O)c1', '%', 78);

Next, consider the following molecule.
Specify Decomposition in % for CCC(=O)O[C@H]1CC[C@H]2[C@@H]3CCC4=CC(=O)CC[C@]4(C)[C@H]3CC[C@]12C [Testosterone Propionate, 3-Oxoandrost-4-en-17β-yl n-propionate, reference compound] and stop.
0
